The reported numbers originate from patent EP1202975B1.

biological target: TF-VIIa (Homo sapiens); construct: 2nM recombinant human factor VIIa; purchased American Diagnostica, Greenwich CT; host or cells: soluble TF made in house in E. coli; assay: TF-VIIa Assay; format: biochemical; conditions: read-out: IC50 or % Inhibition TF-VIIa (30 µM); cells given as a plain number (IC50)
Sequence (P08709 213-466 limits assumed): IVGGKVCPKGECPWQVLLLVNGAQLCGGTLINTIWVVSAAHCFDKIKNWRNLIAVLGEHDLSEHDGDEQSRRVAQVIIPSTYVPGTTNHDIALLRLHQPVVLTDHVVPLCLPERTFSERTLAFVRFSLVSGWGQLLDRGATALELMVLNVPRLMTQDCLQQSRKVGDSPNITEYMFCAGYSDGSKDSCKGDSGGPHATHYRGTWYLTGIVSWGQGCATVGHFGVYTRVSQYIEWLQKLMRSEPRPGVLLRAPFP
Sequence (P08709 61-212 limits assumed): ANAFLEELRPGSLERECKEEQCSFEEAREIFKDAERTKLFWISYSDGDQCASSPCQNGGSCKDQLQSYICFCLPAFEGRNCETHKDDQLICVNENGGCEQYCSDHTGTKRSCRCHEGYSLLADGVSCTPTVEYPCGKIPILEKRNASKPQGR
Sequence (P13726 33-251 partner limits assumed): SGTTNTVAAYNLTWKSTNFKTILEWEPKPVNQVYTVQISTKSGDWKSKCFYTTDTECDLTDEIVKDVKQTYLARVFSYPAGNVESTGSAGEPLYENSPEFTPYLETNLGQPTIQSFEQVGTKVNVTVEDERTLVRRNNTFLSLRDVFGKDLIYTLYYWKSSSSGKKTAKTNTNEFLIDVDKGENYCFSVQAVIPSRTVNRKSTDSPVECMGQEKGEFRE
pIC50: −log10 of the molar value.
Each entry gets -1 if its pIC50 stays under 6, and 1 if its pIC50 is 6 or above.

molecule | classification
CC[C@H](C)Nc1nc(Cl)c(-c2cccc(N)c2)n(CC(=O)NCc2ccc(C(=N)N)cc2)c1=O [1526-09] | 1
N=C(N)c1ccc(CNC(=O)Cn2c(-c3ccccc3)c(Cl)nc(NC3CCCC3)c2=O)cc1 [1507-25] | -1
COCC(C)Nc1nc(Cl)c(-c2cccc(N)c2)n(CC(=O)NCc2ccc(C(=N)N)cc2)c1=O (stereo not shown) [1526-05] | 1
N=C(N)c1ccc(CNC(=O)Cn2c(-c3ccccc3)c(Cl)nc(NCc3ccc(OC(F)(F)F)cc3)c2=O)cc1 [1507-04] | -1
CC(C)CC(C)Nc1nc(Cl)c(-c2ccccc2)n(CC(=O)NCc2ccc(C(=N)N)cc2)c1=O (stereo not shown) [1522-17] | 1
N=C(N)c1ccc(CNC(=O)Cn2c(-c3ccccc3)c(Cl)nc(NCc3cccc(Cl)c3)c2=O)cc1 [1507-38] | -1
N=C(N)c1ccc(CNC(=O)Cn2c(-c3ccccc3)c(Cl)nc(NCc3cc(C(F)(F)F)ccc3F)c2=O)cc1 [1512-27] | -1

----------
target: Human factor Xa (Homo sapiens, UniProt P00742); test: Xa Assay; conditions: % inhibition at 30 µM
Sequence (P00742 235-488 limits assumed): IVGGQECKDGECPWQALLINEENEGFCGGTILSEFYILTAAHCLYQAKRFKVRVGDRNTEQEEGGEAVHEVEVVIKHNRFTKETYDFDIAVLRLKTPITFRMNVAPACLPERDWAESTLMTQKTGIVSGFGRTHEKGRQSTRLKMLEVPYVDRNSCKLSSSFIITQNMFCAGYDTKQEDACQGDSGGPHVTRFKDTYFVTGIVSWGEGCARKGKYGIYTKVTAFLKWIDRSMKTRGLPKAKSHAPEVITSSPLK
Sequence (P00742 41-179 limits assumed): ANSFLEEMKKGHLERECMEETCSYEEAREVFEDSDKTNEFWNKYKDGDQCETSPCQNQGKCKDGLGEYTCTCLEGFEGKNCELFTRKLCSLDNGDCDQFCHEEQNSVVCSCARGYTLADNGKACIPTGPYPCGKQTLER
Entries whose IC50 or % Inhibition Factor Xa (30 µM) is below 2% take true (1); entries at or above 2% take false (0).

compound | assayed.target | classification
CCCCNc1nc(Cl)c(-c2ccccc2)n(CC(=O)NCc2ccc(C(=N)N)cc2)c1=O [1512-14] | Human factor Xa (Homo sapiens, UniProt P00742) | false (0)
N=C(N)c1ccc(CNC(=O)Cn2c(-c3ccccc3)c(Cl)nc(NC3CCS(=O)(=O)C3)c2=O)cc1 (stereo not drawn) [1507-36] | Human factor Xa (Homo sapiens, UniProt P00742) | true (1)
N=C(N)c1ccc(CNC(=O)Cn2c(-c3cccc(N)c3)c(Cl)nc(NC3CCC3)c2=O)c(F)c1 | Human factor Xa (Homo sapiens, UniProt P00742) | false (0)
CC(C)CCNc1nc(Cl)c(-c2ccccc2)n(CC(=O)NCc2ccc(C(=N)N)cc2)c1=O | Human factor Xa (Homo sapiens, UniProt P00742) | true (1)
N=C(N)c1ccc(CNC(=O)Cn2c(-c3ccccc3)cnc(NC(=O)Nc3cc(Cl)cc(Cl)c3)c2=O)cc1 | Human factor Xa (Homo sapiens, UniProt P00742) | false (0)
N=C(N)CCNc1nc(Cl)c(-c2ccccc2)n(CC(=O)NCc2ccc(C(=N)N)cc2)c1=O | Human factor Xa (Homo sapiens, UniProt P00742) | false (0)
CCCCNc1nc(Cl)c(-c2ccccc2)n(CC(=O)NCc2ccc(C(=N)N)cc2)c1=O [1517-35] | Human factor Xa (Homo sapiens, UniProt P00742) | true (1)
N=C(N)c1ccc(CNC(=O)Cn2c(-c3ccccc3)cnc(NC(=O)Nc3cccc(N)c3)c2=O)cc1 | Human factor Xa (Homo sapiens, UniProt P00742) | false (0)
CC(C)Nc1nc(Cl)c(-c2cccc(N)c2)n(CC(=O)NCc2ccc(C(=N)N)s2)c1=O | Human factor Xa (Homo sapiens, UniProt P00742) | true (1)
CC(C)Nc1nc(Cl)c(-c2ccc(Cl)nc2)n(CC(=O)NCc2ccc(C(=N)N)cc2F)c1=O | Human factor Xa (Homo sapiens, UniProt P00742) | false (0)
Nc1cccc(-c2c(Cl)nc(NC3CCC3)c(=O)n2CC(=O)NCCCc2ccnc(N)n2)c1 | Human factor Xa (Homo sapiens, UniProt P00742) | false (0)
CC(C)Nc1nc(Cl)c(-c2cccnc2)n(CC(=O)NCc2ccc(C(=N)N)cc2)c1=O | Human factor Xa (Homo sapiens, UniProt P00742) | false (0)
N=C(N)c1ccc(CNC(=O)Cn2c(-c3ccccc3)c(Cl)nc(NCCCCN)c2=O)cc1 | Human factor Xa (Homo sapiens, UniProt P00742) | false (0)
CSc1ccc(N)cc1-c1c(Cl)nc(NC(C)C)c(=O)n1CC(=O)NCc1ccc(C(=N)N)cc1 | Human factor Xa (Homo sapiens, UniProt P00742) | true (1)
N=C(N)c1ccc(CNC(=O)Cn2c(-c3ccccc3)c(Cl)nc(NC3CCCCCC3)c2=O)cc1 [1507-29] | Human factor Xa (Homo sapiens, UniProt P00742) | false (0)
N#CCCNc1nc(Cl)c(-c2ccccc2)n(CC(=O)NCc2ccc(C(=N)N)cc2)c1=O | Human factor Xa (Homo sapiens, UniProt P00742) | false (0)

----------
molecular target: TF-VIIa (Homo sapiens); construct: 2nM recombinant human factor VIIa; purchased American Diagnostica, Greenwich CT; host or cells: soluble TF made in house in E. coli; test: TF-VIIa Assay; assay type: biochemical; settings: read-out: IC50 or % Inhibition TF-VIIa (30 µM); cells given as a plain number (IC50)
Mark each entry True if its IC50 sits below 4 µM, and False for all others.

compound | assayed.target | classification
Cc1c(Cl)nc(NCCc2cccnc2)c(=O)n1CC(=O)NCc1ccc(C(=N)N)cc1 | TF-VIIa (Homo sapiens) | True
N=C(N)c1ccc(CNC(=O)Cn2c(-c3ccccc3)c(Cl)nc(NCc3ccc(F)cc3F)c2=O)cc1 | TF-VIIa (Homo sapiens) | False
N=C(N)c1ccc(CNC(=O)Cn2c(-c3ccccc3)c(Cl)nc(NC3CC3)c2=O)cc1 | TF-VIIa (Homo sapiens) | True
N=C(N)c1ccc(CNC(=O)Cn2c(-c3ccccc3C(F)(F)F)c(Cl)nc(NCc3ccccc3)c2=O)cc1 | TF-VIIa (Homo sapiens) | False
N=C(N)c1ccc(CNC(=O)Cn2c(-c3ccccc3)c(Cl)nc(NC3CCCc4ccccc43)c2=O)cc1 (stereo not shown) | TF-VIIa (Homo sapiens) | False
N=C(N)c1ccc(CNC(=O)Cn2c(-c3ccc(Cl)cc3)c(Cl)nc(NCCc3ccncc3)c2=O)cc1 | TF-VIIa (Homo sapiens) | False
N=C(N)c1ccc(CNC(=O)Cn2c(-c3ccccc3)c(Cl)nc(NCc3ccccc3C(F)(F)F)c2=O)cc1 | TF-VIIa (Homo sapiens) | False
CSCC(C(=O)NCc1ccc(C(=N)N)cc1)n1c(-c2ccccc2)c(Cl)nc(NCc2ccccc2)c1=O (stereo not shown) | TF-VIIa (Homo sapiens) | False
C#CCNc1nc(Cl)c(-c2cccc(N)c2)n(CC(=O)NCc2ccc(C(=N)N)cc2)c1=O | TF-VIIa (Homo sapiens) | True
CCC(C)Nc1nc(Cl)c(-c2cccc(N)c2)n(CC(=O)NCc2ccc(C(=N)N)cc2)c1=O (stereo not shown) | TF-VIIa (Homo sapiens) | True
N=C(N)c1ccc(CNC(=O)Cn2c(-c3cccc(Cl)c3)c(Cl)nc(NCc3ccncc3)c2=O)cc1 | TF-VIIa (Homo sapiens) | False
N=C(N)c1ccc(CNC(=O)Cn2c(-c3ccccc3)c(Cl)nc(NC(c3ccccc3)c3ccccc3)c2=O)cc1 | TF-VIIa (Homo sapiens) | False
N=C(N)c1ccc(CNC(=O)Cn2c(-c3ccsc3)c(Cl)nc(NCCc3cccc(Cl)c3)c2=O)cc1 | TF-VIIa (Homo sapiens) | True
N=C(N)c1ccc(CNC(=O)Cn2c(-c3cccc(N)c3)c(Cl)nc(N[C@@H]3CC4CCC3C4)c2=O)cc1 (stereo partly shown) | TF-VIIa (Homo sapiens) | True
N=C(N)c1ccc(CNC(=O)Cn2c(-c3ccc(Cl)cc3)c(Cl)nc(NCCc3cccnc3)c2=O)cc1 | TF-VIIa (Homo sapiens) | False
N=C(N)c1ccc(CNC(=O)Cn2c(-c3cccs3)c(Cl)nc(NCCc3ccccc3)c2=O)cc1 | TF-VIIa (Homo sapiens) | True

----------
target: TF-VIIa (Homo sapiens); construct: 2nM recombinant human factor VIIa; purchased American Diagnostica, Greenwich CT; host or cells: soluble TF made in house in E. coli; test: TF-VIIa Assay; type: biochemical; conditions: 100 µM
This section presents compounds with their documented % Inhibition TF-VIIa (100 µM) values.
observable: % Inhibition TF-VIIa (100 µM) (%)

compound | assayed.target | numeric.readout
O=C(Cn1c(-c2ccc(-c3ccccc3)cc2)c(Cl)nc(NCCc2ccccc2)c1=O)NCCc1ccncc1 [Example E-0050] | TF-VIIa (Homo sapiens) | 0
O=C(Cn1c(-c2ccc(Cl)cc2)c(Cl)nc(NCCc2ccc(Cl)cc2)c1=O)NCCc1ccncc1 [Example E-0028] | TF-VIIa (Homo sapiens) | 0
O=C(Cn1c(-c2cccc(Cl)c2)c(Cl)nc(NCCc2ccc(Cl)cc2)c1=O)NCCc1ccncc1 [Example E-0082] | TF-VIIa (Homo sapiens) | 4
O=C(Cn1c(-c2ccc(Cl)cc2)c(Cl)nc(NCCc2cccnc2)c1=O)NCCc1ccncc1 [Example E-0029] | TF-VIIa (Homo sapiens) | 0
